Ref: PubChem BioAssay

Examples of compounds with documented composite z-score follow.
# target.of.assay: Albumin (Bos taurus) (UniProt P02769)
# Sequence (P02769 whole entry, looked up): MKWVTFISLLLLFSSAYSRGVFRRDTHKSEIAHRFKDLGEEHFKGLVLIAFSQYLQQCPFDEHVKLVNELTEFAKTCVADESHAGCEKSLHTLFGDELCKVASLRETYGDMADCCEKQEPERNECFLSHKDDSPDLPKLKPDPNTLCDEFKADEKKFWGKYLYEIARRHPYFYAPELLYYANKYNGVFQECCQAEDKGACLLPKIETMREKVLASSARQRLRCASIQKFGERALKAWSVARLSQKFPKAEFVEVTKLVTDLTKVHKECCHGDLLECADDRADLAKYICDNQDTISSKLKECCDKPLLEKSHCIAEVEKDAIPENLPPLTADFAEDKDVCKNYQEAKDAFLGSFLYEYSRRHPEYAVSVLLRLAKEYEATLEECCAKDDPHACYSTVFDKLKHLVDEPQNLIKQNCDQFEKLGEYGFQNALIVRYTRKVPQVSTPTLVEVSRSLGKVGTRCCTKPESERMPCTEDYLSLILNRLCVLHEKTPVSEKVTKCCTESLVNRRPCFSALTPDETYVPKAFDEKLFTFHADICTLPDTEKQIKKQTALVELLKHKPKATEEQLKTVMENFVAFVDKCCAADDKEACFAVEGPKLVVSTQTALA
# assay.notes: compounds binding labelled BSA control protein – biochemical, small-molecule microarray, Alexa647 label, 635/667 nm fluorescence, artefact control for SMM control protein annotation, profiling panel (AID 1118);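 also: score merges 667 nm emission intensity and signal-to-noise per printed compound spot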
# protocol.conditions: BSA-A647 binding, fluorescence 635 nm, higher = more signal
Give the figure by itself; no unit, no explanation.

IN: Entry C=CCC(OC(C)=O)[C@@H]1[C@@H](N(Cc2ccc(-c3cccc(C(F)(F)F)c3)o2)C(=O)c2cccc3ccccc23)c2cc(OCCCO)ccc2N1C(=O)Cc1ccc2ccccc2c1 (stereo not given in full) : reported composite z-score = ?
OUT: 0.426

IN: Note, next up: CCCCCCCCCCC(O)C1C=CC2C(=O)NC(=O)C2N1Nc1ccc(Cl)cc1Cl (stereo not given)
OUT: 0.145

IN: Please do the same for COc1cc2c(cc1O)C(c1cccs1)N(Cc1ccc([N+](=O)[O-])o1)CC2 (stereo not given) as well.
OUT: 0.878

IN: Lookup `COc1cc2c(cc1O)C=[N+](Cc1cc3c(cc1Br)OCO3)CC2`
OUT: -0.71

IN: What do you get for `CC(C)CN1C(=O)[C@@]2(c3ccc([N+](=O)[O-])cc3)CC(=O)N(C3CCCCC3)[C@@H]2c2ccc(CO)cc21` ?
OUT: -0.124

IN: Same again, this time with CC(C)N1CC=CC23O[C@@H]4C=CCOC(=O)[C@@H]4[C@H]2C(=O)N(CCCCCO)[C@@H]3C1=O (stereo not given in full)
OUT: 1.02

IN: // query: `O=C1N(CCS(=O)(=O)c2ccccc2)c2ccccc2[C@@H]2OC(c3ccc(OCCCO)cc3)=N[C@]12Cc1ccccc1`
OUT: 0.484

IN: Repeat for the following compound: `COCCOC(=O)N1C(=O)[C@@]2(c3cc(C#CC4(O)CCCCCC4)ccc31)[C@H](c1ccccc1OCCO)N1[C@H](c3ccccc3)[C@H](c3ccccc3)OC(=O)[C@H]1[C@@H]2C(=O)N1CCc2cc(OC)c(OC)cc2C1`
OUT: 0.223

IN: Entry to check: CCN(CC)c1ccc(N2CC=CC34O[C@@H]5/C=C\CCC(C)OC(=O)C5[C@H]3C(=O)N(CCCCCO)[C@@H]4C2=O)cc1 (stereo not given in full)
OUT: -0.295

IN: What about CC1CC/C=C\[C@H]2OC34C=CCN(Cn5nnc6ccccc65)C(=O)[C@H]3N(CCCCCO)C(=O)[C@@H]4C2C(=O)O1 (stereo not given in full) ?
OUT: -1.22

***
IN: Which composite z-score is listed for `COC(=O)[C@@]1(Cc2ccc(OC)cc2)[C@H]2c3cc(C(=O)N4CCCC4)n(Cc4nc5ccccc5[nH]4)c3C[C@H]2CN1C(=O)c1ccccc1` ?
OUT: 1.08

IN: How about CC1CC/C=C\[C@H]2OC34C=CCN(Cc5ccccc5)C(=O)[C@H]3N(C(C)CO)C(=O)[C@@H]4C2C(=O)O1 (stereo not given in full) ?
OUT: -0.852

IN: Same again, this time with O=C1OCCC=C[C@H]2OC34C=CCN(Cn5nnc6ccccc65)C(=O)[C@H]3N(CCO)C(=O)[C@@H]4C12 (stereo not given in full)
OUT: 0.995

IN: Similarly, `CCCCC(=C=CC[C@@H](O)c1cccc(OCCO)c1)C[C@@H](O)c1ccccn1` ?
OUT: 0.416

IN: Now give it for `COCCCNC(=O)[C@@H]1c2ccccc2C(=O)N(Cc2ccccc2OC)[C@H]1c1ccc(CO)cc1` too.
OUT: 0.459
